System: ShHTLs (10 HTL proteins in S. hermonthica)
test.protocol: YLG-based competition assay on HTL proteins of S. hermonthica
Type: biochemical, Striga hermonthica
study.conditions: ShHTL11; average of 3 replicates; Supplementary Fig. 27; read-out: IC50, average
// pIC50 lookup, one value per entry
Kindly note that pIC50 refers to -log10 of the concentration in mol/L and answer with the value alone.

molecule: CC1=CC(CC(=O)N2CCN(C(=O)COc3ccc(Br)cc3C)CC2)OC1=O (stereo not shown) [4i]
target.or.system: ShHTLs (10 HTL proteins in S. hermonthica)
reported.measurement: 4.03

molecule: CC1=CC(OC(=O)N2CCN(C(=O)COc3ccc(Br)cc3C)CC2)CC1=O (stereo not shown) [4g]
target.or.system: ShHTLs (10 HTL proteins in S. hermonthica)
reported.measurement: 4.25

molecule: CC1=CC(OC(=O)N2CCN(C(=O)COc3ccc(Br)cc3C)CC2)OC1=O (stereo not shown) [4a]
target.or.system: ShHTLs (10 HTL proteins in S. hermonthica)
reported.measurement: 4.97

molecule: CC1=C[C@H](O/C=C2/C(=O)O[C@@H]3c4ccccc4C[C@H]23)OC1=O (racemic) [rac-GR24, reference compound]
target.or.system: ShHTLs (10 HTL proteins in S. hermonthica)
reported.measurement: 5.50

Next item in the queue.
For the molecule shown here, CC1=C[C@H](OC(=O)N2CCN(C(=O)COc3ccc(Br)cc3C)CC2)OC1=O [(S)-4a] , give the reported pIC50.
5.27

* * *

// hydrolysis by ShHTL7 lookup, one value per entry
target.or.system: ShHTL7 (Striga hermonthica, UniProt A0A0M3PNA2)
Sequence (A0A0M3PNA2 entry or part of it): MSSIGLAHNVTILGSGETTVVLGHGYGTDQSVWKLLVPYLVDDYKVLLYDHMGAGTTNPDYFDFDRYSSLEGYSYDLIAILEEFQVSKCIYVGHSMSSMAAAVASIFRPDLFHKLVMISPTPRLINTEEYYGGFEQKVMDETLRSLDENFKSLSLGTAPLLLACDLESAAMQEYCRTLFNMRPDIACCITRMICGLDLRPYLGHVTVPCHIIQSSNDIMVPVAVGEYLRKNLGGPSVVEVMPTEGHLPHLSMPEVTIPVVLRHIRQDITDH
test.protocol: ShHTL7-hydrolysis reaction analysis (HPLC)
Format: biochemical
study.conditions: 10 μM compound, 30 °C, 30 min
Experimental: Compounds 4a, (R)- and (S)-4a, 4g-i, and rac-GR24 were dissolved in DMSO and prepared as stock solution (1 mmol) just before use. […] The supernatant was filtered and the remaining amount of samples was analyzed by HPLC. […] Supplementary Fig. 11. […] The remaining amounts of compounds in recombinant ShHTL7 protein and buffer solution were determined by HPLC analysis. The relative percentages of hydrolysis were calculated by using the amount of compounds in the buffer as reference. […]
Output spec: scalar in %, unitless text.

compound: CC1=C[C@H](OC(=O)N2CCN(C(=O)COc3ccc(Br)cc3C)CC2)OC1=O [(S)-4a]
target.or.system: ShHTL7 (Striga hermonthica, UniProt A0A0M3PNA2)
measured.attribute: hydrolysis by ShHTL7
uom: %
reported.measurement: 40.1

For the compound shown here, CC1=CC(OC(=O)N2CCN(C(=O)COc3ccc(Br)cc3C)CC2)OC1=O (stereo not shown) [4a] , give the reported hydrolysis by ShHTL7.
36.4

Please answer likewise for CC1=C[C@@H](OC(=O)N2CCN(C(=O)COc3ccc(Br)cc3C)CC2)OC1=O [(R)-4a]
3.1

Please answer likewise for CC1=C[C@H](O/C=C2/C(=O)O[C@@H]3c4ccccc4C[C@H]23)OC1=O (racemic) [rac-GR24, reference compound]
51.9

* * *

Tested on: ShHTLs (10 HTL proteins in S. hermonthica)
test.protocol: YLG-based competition assay on HTL proteins of S. hermonthica
Type: biochemical, Striga hermonthica
study.conditions: ShHTL8; YLG competition; Supplementary Fig. 27; read-out: IC50, replicate 2
measured.attribute: IC50 (µM)
Output spec: scalar in µM, unitless text.

molecule: CC1=CC(OC(=O)N2CCN(C(=O)COc3ccc(Br)cc3C)CC2)CC1=O (stereo not drawn) [4g]
IC50 [µM]: 62

molecule: CC1=C[C@H](OC(=O)N2CCN(C(=O)COc3ccc(Br)cc3C)CC2)OC1=O [(S)-4a]
IC50 [µM]: 7.84

For the molecule shown here, CC1=CC(OC(=O)N2CCN(C(=O)COc3ccc(Br)cc3C)CC2)OC1=O (stereo not drawn) [4a] , give the reported IC50.
15.3

* * *

Tested on: ShHTLs (10 HTL proteins in S. hermonthica)
test.protocol: YLG-based competition assay on HTL proteins of S. hermonthica
Type: biochemical, Striga hermonthica
study.conditions: ShHTL8; YLG competition; Supplementary Fig. 27; read-out: IC50, replicate 2
measured.attribute: IC50 (µM)
Output spec: scalar in µM, unitless text.

molecule: CC1=C[C@H](O/C=C2/C(=O)O[C@@H]3c4ccccc4C[C@H]23)OC1=O (racemic) [rac-GR24, reference compound]
measured.attribute: IC50
uom: µM
reported.measurement: 6.78
//
molecule: CC1=CC(OC(=O)N2CCN(C(=O)COc3ccc(Br)cc3C)CC2)N(C)C1=O (stereo not shown)
measured.attribute: IC50
uom: µM
reported.measurement: 81.2

API: value(readout= IC50, system= ShHTLs (10 HTL proteins in S. hermonthica), query= CC1=CC(CC(=O)N2CCN(C(=O)COc3ccc(Br)cc3C)CC2)OC1=O (stereo not shown) )
71.1

Please answer likewise for CC1=C[C@@H](OC(=O)N2CCN(C(=O)COc3ccc(Br)cc3C)CC2)OC1=O [(R)-4a]
53.3

* * *

// IC50 lookup, one value per entry
target.or.system: ShHTL7 Y26F (Striga hermonthica, UniProt A0A0M3PNA2, Y26F)
test.protocol: YLG competitive inhibition, ShHTL7 mutant Y26F
Output spec: scalar in µM, unitless text.

molecule: CC1=C[C@@H](OC(=O)N2CCN(C(=O)COc3ccc(Br)cc3C)CC2)OC1=O [(R)-4a]
IC50 (µM): 29.9

Next item in the queue.
For the molecule shown here, CC1=C[C@H](OC(=O)N2CCN(C(=O)COc3ccc(Br)cc3C)CC2)OC1=O [(S)-4a] , give the reported IC50.
0.233

* * *

// pIC50 lookup, one value per entry
target.or.system: ShHTL7 T121S (Striga hermonthica, UniProt A0A0M3PNA2, T121S)
Sequence (A0A0M3PNA2 whole entry T121S): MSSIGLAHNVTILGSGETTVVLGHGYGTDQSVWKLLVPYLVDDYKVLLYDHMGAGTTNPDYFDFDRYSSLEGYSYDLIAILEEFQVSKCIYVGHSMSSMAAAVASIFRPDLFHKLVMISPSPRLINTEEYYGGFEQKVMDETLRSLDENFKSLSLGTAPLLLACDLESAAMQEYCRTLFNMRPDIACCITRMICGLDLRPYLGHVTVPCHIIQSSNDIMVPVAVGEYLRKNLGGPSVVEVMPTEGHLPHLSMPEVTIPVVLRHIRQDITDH
test.protocol: YLG competitive inhibition, ShHTL7 mutant T121S
Kindly note that pIC50 refers to -log10 of the concentration in mol/L and answer with the value alone.

compound: CC1=C[C@@H](OC(=O)N2CCN(C(=O)COc3ccc(Br)cc3C)CC2)OC1=O [(R)-4a]
target.or.system: ShHTL7 T121S (Striga hermonthica, UniProt A0A0M3PNA2, T121S)
reported.measurement: 5.31

Next item in the queue.
API: value(readout= pIC50, system= ShHTL7 T121S (Striga hermonthica, UniProt A0A0M3PNA2, T121S), query= CC1=C[C@H](OC(=O)N2CCN(C(=O)COc3ccc(Br)cc3C)CC2)OC1=O [(S)-4a] )
6.10

* * *

// IC50 lookup, one value per entry
Test system: ShHTLs (10 HTL proteins in S. hermonthica)
test.protocol: YLG-based competition assay on HTL proteins of S. hermonthica
Format: biochemical, Striga hermonthica
study.conditions: ShHTL5; YLG competition; Supplementary Fig. 27; read-out: IC50, replicate 3
Output spec: scalar in µM, unitless text.

Here's what some known entries look like.
compound: CC1=CC(OC(=O)N2CCN(C(=O)COc3ccc(Br)cc3C)CC2)CC1=O (stereo not shown)
measured.attribute: IC50
reported.measurement: 41.8
--
compound: CC1=C[C@@H](OC(=O)N2CCN(C(=O)COc3ccc(Br)cc3C)CC2)OC1=O [(R)-4a]
measured.attribute: IC50
reported.measurement: 35.9
--
compound: CC1=CC(OC(=O)N2CCN(C(=O)COc3ccc(Br)cc3C)CC2)OC1=O (stereo not shown)
measured.attribute: IC50
reported.measurement: 13.3

For the compound shown here, CC1=CC(OC(=O)N2CCN(C(=O)COc3ccc(Br)cc3C)CC2)N(C)C1=O (stereo not shown) , give the reported IC50.
42.1

Please answer likewise for CC1=C[C@H](OC(=O)N2CCN(C(=O)COc3ccc(Br)cc3C)CC2)OC1=O [(S)-4a]
5.43

Please answer likewise for CC1=C[C@H](O/C=C2/C(=O)O[C@@H]3c4ccccc4C[C@H]23)OC1=O (racemic) [rac-GR24, reference compound]
6.74

Please answer likewise for CC1=CC(CC(=O)N2CCN(C(=O)COc3ccc(Br)cc3C)CC2)OC1=O (stereo not shown)
43

* * *

// germination of P. aegyptiaca seeds, source data average lookup, one value per entry
Tested on: P. aegyptiaca seeds
test.protocol: P. aegyptiaca seed germination assay
Format: in vivo, Phelipanche aegyptiaca
study.conditions: 10 μM; Fig. 1d source data, average of 3
Output spec: scalar in %, unitless text.

Here's what some known entries look like.
molecule: Cc1cccc(OCC(=O)N2CCN(CC3CC4C=CC3C4)CC2)c1 (stereo not shown)
reported.measurement: 18.7364

molecule: CC1=C[C@H](O/C=C2/C(=O)O[C@@H]3c4ccccc4C[C@H]23)OC1=O (racemic) [rac-GR24, reference compound]
reported.measurement: 96.5229

molecule: O=C(c1ccc(F)cc1)N1CCN(CC2CC=CCC2)CC1 (stereo not shown)
reported.measurement: 40.0744

For the molecule shown here, Cc1ccc(OCC(=O)N2CCN(CC3CC4C=CC3C4)CC2)cc1 (stereo not shown) , give the reported germination of P. aegyptiaca seeds, source data average.
25.888
